Measured values drawn from PubChem BioAssay (EPA / NIEHS) for this set.

# protocol summary: CCTE_Shafer_MEA_acute_per_burst_spike_number_mean: CCTE's Neural Acute Assay for Average Number of Spikes Per Burst, Shafer Lab (AID 2284015);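 also: hits are decreases in mean spikes per burst versus baseline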
Calls of active or inactive are those of the source. The calls were made as follows: active = hit-call score of the fitted dose curve at least 0.9, where 1 is the maximum; inactive = score below 0.9.
reported metric: AC50

CC1(C)CCC[C@]2(C)[C@H]3CCO[C@]3(C)CC[C@@H]12    inactive
COCCc1ccc(OCC(O)CNC(C)C)cc1 (stereo not given)    inactive
Oc1c(Cl)cc(Cl)c(Cl)c1Cc1c(O)c(Cl)cc(Cl)c1Cl    0.155 µM (active)
CCCCCCC(CO)CCCC (stereo not given)    inactive

Let us examine a further case.
I would be grateful if you could share the reported AC50 for "CCOC(=O)C(C#N)=C(c1ccccc1)c1ccccc1" . inactive

----------
# protocol summary: ACEA_AR_agonist_AUC_viability: ACEA Biosciences xCELLigence Real-Time Cell Analysis on Androgen Receptor Agonism for Viability (AID 2283775)
Inconclusive results are not listed. Activity calls are given as the source filed them. How the source made its calls: active means hit-call score of the fitted dose curve at least 0.9, where 1 is the maximum; inconclusive means response in the unintended direction; inactive means score below 0.9.
Your answer must be one of the following: active, inactive

Field: example entries. Status: answers known.
CC(=O)O[C@@H]1CC2CCC1(C)C2(C)C (some centres not stated)    inactive
Cc1ccc(S(=O)(=O)Oc2ccc(N=Nc3ccc(-c4ccc(N=Nc5c(O)ccc6cc(S(=O)(=O)O)cc(S(=O)(=O)O)c56)c(C)c4)cc3C)cc2)cc1    active
C#CC(C)(O)CC(C)C (configuration not stated)    inactive
Nc1ccccc1[N+](=O)[O-]    inactive
C=C1CC[C@H](O)C/C1=C/C=C1\CCC[C@]2(C)[C@@H]([C@H](C)/C=C/[C@H](C)C(C)C)CC[C@@H]12    inactive
CC1CCC(C(C)C)C(O)C1 (configuration not stated)    inactive
O=Cc1ccccc1S(=O)(=O)O    active
CCOc1ccccc1O    inactive
CS(=O)(=O)OCCCCOS(C)(=O)=O    inactive
CCCCCCCCCC(=O)OC    inactive

So what was the verdict on "CCCCCCCCCCCCCCN(CCO)CCO" in this test? active

# outcome recorded in this test, key = "CCC(=O)O[C@@H]1C[C@H]2CC[C@]1(C)C2(C)C" inactive

----------
# Read-out: Intercellular Adhesion Molecule 1 (ICAM1), ICAM1 (gene 3383)
# protocol summary: BSK_3C_ICAM1: BioMAP Diversity Plus: 3C Assay for Intercellular Adhesion Molecule 1 (ICAM1) Biomarker Activity (AID 2283003)
# measurement parameters: primary human endothelial cells (HUVEC); actives raise or lower the signal
Active and inactive are the calls of the source. How the source made its calls: active means hit-call score of the fitted dose curve at least 0.9, where 1 is the maximum; inactive means score below 0.9.
reported metric: outcome

O=CN1CCOCC1    inactive
CCOC(=O)C(C#N)=C(c1ccccc1)c1ccccc1    inactive
CCCCOC(=O)CCCCCCCC(=O)OCCCC    inactive

----------
# protocol summary: ATG_NF_kB_CIS: Attagene CIS-FACTORIAL HepG2 Assay for human Nuclear Factor Kappa B (NF-kB) (AID 2282991)
# measurement parameters: HepG2 Attagene cis-factorial NF-kB reporter mRNA; actives raise or lower the signal
Calls of active or inactive are those of the source. How the source made its calls: active means hit-call score of the fitted dose curve at least 0.9, where 1 is the maximum; inactive means score below 0.9.
Give your call using only these classes: active, inactive

Look over these answered cases.
CCOCCOCCOCC    inactive
CC(=O)C1(C)CC2=C(CCCC2(C)C)CC1C (stereo not given)    active
C=Cc1ccncc1    active
N#Cc1ccc(CC(=O)c2cccc(C(F)(F)F)c2)cc1    inactive
CC(C)C(OC(=O)c1ccccc1)C(C)(C)COC(=O)c1ccccc1 (stereo not given)    inactive

Could you please tell me the result logged for "Cc1c(C2(c3cc(Br)c(O)c(Br)c3C)OS(=O)(=O)c3ccccc32)cc(Br)c(O)c1Br" in this assay? inactive

Assay result, entry "CCNCCO" — outcome? inactive

How did this test come out for "O=C1OC(=O)c2c(Br)c(Br)c(Br)c(Br)c21" ? inactive

In this assay, the call recorded for "C=Cc1ccc(C)cc1" was what? inactive

Assay outcome for "C[Si]1(C)O[Si](C)(C)O[Si](C)(C)O1" : what was it? inactive

Tell me the assay call for "COc1ccccc1N=Nc1c(S(=O)(=O)O)cc2cc(S(=O)(=O)O)cc(NC(C)=O)c2c1O" please. inactive

I'd appreciate the recorded outcome for "CC(=O)O[C@H]1C[C@@H]2CC[C@@]1(C)C2(C)C" from this test. inactive

Give the logged outcome of this assay for the following compound: CC1CCC(C(C)C)C(O)C1 (stereo not given) inactive

Given "OCC#CCO" , state the outcome it received in this test. inactive

Recorded test call requested for "OCc1cccc(Oc2ccccc2)c1" inactive

Answer briefly: the call reported for "COS(=O)(=O)O" in this assay. inactive

Record request — test call for "c1ccc(CN(Cc2ccccc2)Cc2ccccc2)cc1" inactive

For "FC(F)(F)COCC(F)(F)F" , what call appears in the results of this test? inactive

Could you check what this test reported for "O=[N+]([O-])c1cccc(Cl)c1" ? inactive

Any idea what this test logged for "CC(C)CCCCCCc1ccc(OCCOCCO)cc1" ? inactive

Recorded test call requested for "CCCCCc1ccco1" active

Please share the test call associated with "C=C1CC[C@H](O)C/C1=C/C=C1\CCC[C@]2(C)[C@@H]([C@H](C)/C=C/[C@H](C)C(C)C)CC[C@@H]12" . active

Would you mind telling me which call this test gave "C=C(C#N)C(=O)OCC" ? active
